Tested on: SK-OV-3
assay.comment: NCI tumour cell line growth inhibition, 48 h
Calls of active or inactive are those of the source. Cut-off read from the data, not from the text of the source: active = GI50 up to about 1.1 µM and inactive = higher.
Please respond with reported GI50 for every item in the list.

Past entries and their recorded results:
molecule: O=c1[nH][nH]c(=O)c2c1ccc1oc3ccccc3c12
GI50: > 100 µM (inactive)
--
molecule: CSc1ncc2c(C#N)c3n(C)c4ccccc4n3c(=O)c2n1
GI50: > 100 µM (inactive)
--
molecule: CC(C)(C)c1cc2nc(c1)C(C(F)(F)F)(C(F)(F)F)OB(Br)OC2(C(F)(F)F)C(F)(F)F
GI50: 1.3 µM (inactive)
--
molecule: COc1nc(NC2OC(COC(C)=O)C(OC(C)=O)C(OC(C)=O)C2OC(C)=O)c(/N=C(\C)C(C)=O)c(=O)n1C (stereo not given)
GI50: > 100 µM (inactive)

Switching to the query record.
Give its GI50 value. Item: CC(C)(C)OC1=C(OC(C)(C)C)C(O)(c2ccccc2)C1=O (stereo not given)
> 100 µM (inactive)

* * *

System: M14
assay.comment: NCI tumour cell line growth inhibition, 48 h
Calls of active or inactive are those of the source. Rule as the data show it: active = GI50 up to about 1.1 µM and inactive = higher.
value.type: GI50

molecule: N#CC1CC2(CCN1C(=O)c1ccccc1)OCCO2 (centres undefined)
value.type: GI50
observed.value: > 100 µM (inactive)

molecule: CC[C@H](C)[C@H](NC(=O)[C@@]1(O)[C@H](O)[C@]2(CC)C=CCN3CC[C@@]4(c5cc(Br)c(OC)cc5N(C)[C@@H]14)[C@@H]32)C(=O)OC
value.type: GI50
observed.value: 22.1 µM (inactive)

molecule: O=C(c1ccccc1)c1ccc(OCCOc2ccc(Nc3ccccc3)cc2)cc1
value.type: GI50
observed.value: 49.5 µM (inactive)

Hey, quick one: what's GI50 for each of these?
1. Oc1cccc(-c2cc(O)c3cc4c(cc3n2)OCO4)c1
2. O=C(Nc1nccs1)c1cc(C2=CC=CC([N+](=O)[O-])C=C2)nc(S)n1 (centres undefined)
3. O=C1CC(c2cccc([N+](=O)[O-])c2)C2(C(=O)NC(=S)NC2=O)C(c2cccc([N+](=O)[O-])c2)C1 (centres undefined)
4. Cc1cc(NS(=O)(=O)c2ccc(NC(=O)c3cccc4c(Nc5ccc(S(=O)(=O)Nc6cc(C)on6)cc5)c5ccccc5nc34)cc2)no1

1. 3.58 µM (inactive)
2. > 100 µM (inactive)
3. 21.9 µM (inactive)
4. 72.6 µM (inactive)

# batch: return GI50 for each of the 2 molecules below
1. Fc1ccc(/N=C/C=C/Nc2ccc(F)cc2)cc1
2. O=C1/C(=C/c2ccc(O)cc2)Oc2ccccc21

1: 0.137 µM (active); 2: > 100 µM (inactive)

* * *

System: SK-MEL-28
assay.comment: NCI tumour cell line growth inhibition, 48 h
Active and inactive are the calls of the source. Rule as the data show it: active = GI50 up to about 1.1 µM and inactive = higher.
value.type: GI50

The following compounds each have a reported value; give each one's GI50.
1. Oc1cccc(Nc2cc(O)nc(O)n2)c1
2. O=c1[nH][nH]c(=O)c2c1ccc1oc3ccccc3c12
3. OC1CCCCCCCCCCC1[S+]1CCCC1.O[B-](F)(F)F (stereo not drawn)
4. Cn1cc(NC(=O)c2cc(NC(=O)CCCCCCCCCC(=O)Nc3cc(C(=O)Nc4cc(C(=O)NCCC(=N)N)n(C)c4)n(C)c3)cn2C)cc1C(=O)NCCC(=N)N

["> 100 µM (inactive)", "> 100 µM (inactive)", "68.4 µM (inactive)", "11.9 µM (inactive)"]

Need GI50 for each of these compounds.
1. N#CCCN(CCC#N)c1ccc(C(/N=N/c2ccc(Cl)cc2)=N\c2ccccc2)cc1
2. COc1ccc(/C=N/NC(=O)c2cnc3[nH]c(=O)n(C)c(=O)c3c2)cc1
3. CCCC(=O)NC(Nc1cc(C)ccn1)(C(=O)OCC)C(F)(F)F (stereo not drawn)

1. 15.3 µM (inactive)
2. > 100 µM (inactive)
3. > 100 µM (inactive)

Record GI50 per entry; entries follow.
1. CC(=O)Oc1cc2c(cc1OCC(F)(F)F)[C@H]1CC[C@]3(C)[C@@H](OC(C)=O)CC[C@H]3[C@@H]1CC2=O
2. COc1ccc(CCN2C(=O)CC34C=CC(CC3C2=O)O4)cc1OC (stereo not drawn)
3. COc1ccc(NC(=S)Nc2cc(C)ccn2)cc1
4. CC[C@H](C)[C@H](NC(=O)[C@@]1(O)[C@H](O)[C@]2(CC)C=CCN3CC[C@@]4(c5cc(Br)c(OC)cc5N(C)[C@@H]14)[C@@H]32)C(=O)OC

["22.2 µM (inactive)", "> 100 µM (inactive)", "> 100 µM (inactive)", "13.2 µM (inactive)"]

For the 5 compounds below, give their GI50 values.
1. COC(=O)C1=C(C(=O)OC)C2(C3C(SC)=CC(C)(C)CC3S1)N(Cc1ccccc1)CCN2Cc1ccccc1 (stereo not drawn)
2. CCOC(=O)NC(=O)c1cn(-c2ccc(CCOC(=O)CCCCCCCCC(=O)OCCc3ccc(-n4cc(C(=O)NC(=O)OCC)c(=O)[nH]c4=O)cc3)cc2)c(=O)[nH]c1=O
3. CCN(CC)C(=C(C(Cl)=C(Cl)Cl)[N+](=O)[O-])N(CC)CC
4. Cc1c(NC(=S)Nc2ccc([N+](=O)[O-])cc2)c(=O)n(-c2ccccc2)n1C
5. CC(=O)c1c2c(cc3c1CC1(Cc4cc5c(cc4C1)CCC5)C3)CCC2

1. > 100 µM (inactive)
2. > 100 µM (inactive)
3. 49.1 µM (inactive)
4. > 100 µM (inactive)
5. > 100 µM (inactive)

Hey, quick one: what's GI50 for each of these?
1. NCC(O)CNCC/C=C\C/C=C\C/C=C\C/C=C\C/C=C\C/C=C\CCCCC/C=C\CCNCC(O)CN (stereo not drawn)
2. C=CCOCn1ccc(=O)[nH]c1=O

1. 3.4 µM (inactive)
2. > 100 µM (inactive)

Data provenance: ChEMBL document CHEMBL1201862
